# Method: Aqueous solubility in 50 mM phosphate buffer pH 7.4
# Format: physicochemical
# Experimental Parameters: aqueous buffer, thermodynamic from solid; 50 mM phosphate buffer pH 7.4, 25 °C, 24 h; n = 3; mean ± SD
Each entry below carries its recorded solubility at 24 h.
Field format: number, assumed µg/mL, no unit text.

Look up and report measured solubility at 24 h for this entry: Cc1nc(COC(=O)C(C)(C)C)c(C)nc1COC(=O)C(C)(C)C 29.9

###

Form field: half-life (one value per entry).
# Method: Metabolism in human liver microsomes
# Format: in vitro ADME
# Experimental Parameters: human, human liver microsomes, pH 7.4; prodrug disappearance, from pseudo-first-order rate constant; read-out: t1/2 (Human Liver Microsomes) (converted)
# Description: For a rationally designed prodrug intended to prolong the half-life of the active moiety, the metabolic lability should be sufficient and continuous. Preliminary metabolic stability was assessed in human plasma and human liver microsomes The profile of disappearance of each prodrug followed a pseudo-first-order trend, and half-lives were calculated from the linear slopes of logarithmic plots of remaining prodrug over time. […]
Write the number in h without appending the unit.

Illustrative cases are given below, each with its answer.
>>> recorded_value("Cc1nc(COC(=O)C(C)(C)C)c(C)nc1CO")
5.1
>>> recorded_value("Cc1nc(COC(=O)C(C)(C)C)c(C)nc1COC(=O)C(C)(C)C")
3.2
>>> recorded_value("CCCCCCCCCCCC(=O)OCc1nc(C)c(CO)nc1C")
2.2
>>> recorded_value("CCCCCCCCCCCC(=O)OCc1nc(C)c(COC(=O)CCCCCCCCCCC)nc1C")
7.9
>>> recorded_value("CCCCCCCCCC(=O)OCc1nc(C)c(COC(=O)CCCCCCCCC)nc1C")
4.1

Retrieve half-life measured for CCCCCCCCCC(=O)OCc1nc(C)c(CO)nc1C and print it. 2.1

Retrieve half-life measured for CCCCCCCCCCCCCCCC(=O)OCc1nc(C)c(CO)nc1C and print it. 3.3

###

# Method: Hydrolysis (chemical stability) in phosphate buffer pH 7.4
# Type: physicochemical
# Experimental Parameters: buffer solution pH 7.4, 37 °C, n = 3, mean ± SD
Measured Quantity: % Unchanged at 24 h (pH 7.4)

The following compounds have reported results that may help.
>>> recorded_value("CCCCCCCCCCCCCCCC(=O)OCc1nc(C)c(CO)nc1C [Compound M16]")
"99.4 ± 0.4%"
>>> recorded_value("Cc1nc(COC(=O)C(C)(C)C)c(C)nc1CO [Compound M5]")
"98.9 ± 0.3%"
>>> recorded_value("CCCCCCCCCCCCCCCCCC(=O)OCc1nc(C)c(COC(=O)CCCCCCCCCCCCCCCCC)nc1C [Compound D18]")
"stable ^c"
>>> recorded_value("CCCCCCCCCCCC(=O)OCc1nc(C)c(COC(=O)CCCCCCCCCCC)nc1C [Compound D12]")
"99.8 ± 0.5%"
>>> recorded_value("CCCCCCCCCC(=O)OCc1nc(C)c(CO)nc1C [Compound M10]")
"98.9 ± 0.3%"
>>> recorded_value("CCCCCCCCCC(=O)OCc1nc(C)c(COC(=O)CCCCCCCCC)nc1C [Compound D10]")
"98.7 ± 0.4%"
>>> recorded_value("CCCCCCCCCCCCCCCC(=O)OCc1nc(C)c(COC(=O)CCCCCCCCCCCCCCC)nc1C [Compound D16]")
"stable ^c"
>>> recorded_value("Cc1nc(COC(=O)C(C)(C)C)c(C)nc1COC(=O)C(C)(C)C [Compound D5]")
"96.1 ± 0.2%"

For the compound CCCCCCCCCCCC(=O)OCc1nc(C)c(CO)nc1C [Compound M12] , report % Unchanged at 24 h (pH 7.4). 99.7 ± 0.2%

Every entry's value here was drawn from paper PMC6271266.
